The measured values listed here are drawn from paper PMC10397247.

Target: T1, 4H2697-bA
T1 chain: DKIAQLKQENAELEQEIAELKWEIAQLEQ
Experiment: two-hybrid library CCNG1;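 note: natural log of median RNA to DNA barcode read ratio; higher means stronger binding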
property-measured: interaction score
Give bare numbers.

# annotated cases, reported interaction score shown
## Input For the binder DKIAQLKQENAELEQEIAELKWEIAQLEQ [4H2697-bA] , give its measured interaction score value.
## Output -0.377

## Input Identify measured interaction score associated with DKIAQLKQEIAELEQKNAELEWEIAQLKQ [4H2610-bA]
## Output 0.713

## Input Give the value of interaction score reported for the following: DENAQLKQKIAELEQKNAELEWKIAQLEQ [4H1845-bA]
## Output -0.601

## Input Return the recorded interaction score value; entry: DENAQLEQENAELEQKIAELKWEIAQLEQ [4H1193-bA]
## Output -0.731

Now for a further binder.
## Input Tell us which interaction score value is on record for DENAQLEQKIAELEQKIAELKWKNAQLKQ [4H1328-bA]
## Output 0.429
